System: P. vulgatus WT;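 further: active when median AUC fell below 0.1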
Experiment: growth AUC normalised to DMSO control (median) (fraction of control); higher = less growth inhibition, active = hit call of the paper
Details: 20 µM
Quick reference: growth AUC normalised to DMSO control of the listed items.

[
  {
    "compound": "CC(Oc1c(Cl)cccc1Cl)C1=NCCN1 (stereo not given) [Lofexidine]",
    "measured": "1.03 (inactive)"
  }
]

The compound listed as CC#C[C@]1(O)CC[C@H]2[C@@H]3CCC4=CC(=O)CCC4=C3[C@@H](c3ccc(N(C)C)cc3)C[C@@]21C [Mifepristone] has a reported growth AUC normalised to DMSO control of 0.954 (inactive)

The compound listed as CC(N)(Cc1ccc(O)c(O)c1)C(=O)O (stereo not given) [(L) Methyldopa] has a reported growth AUC normalised to DMSO control of 1.05 (inactive)

The compound listed as CC(C)Cc1ccc([C@H](C)C(=O)O)cc1 [(S,+) Ibuprofen] has a reported growth AUC normalised to DMSO control of 0.982 (inactive)

The compound listed as CNC[C@H](O)[C@@H](O)[C@H](O)[C@H](O)CO [Meglumine] has a reported growth AUC normalised to DMSO control of 1.04 (inactive)

Sourced from the supplement of paper PMC12350171
